# studyTarget: T1, human TL1A extracellular domain with N-terminal HIS and FLAG tag (human, UniProt O95150 72-251)
# T1 construct: the whole entry is named
# T1 sequence: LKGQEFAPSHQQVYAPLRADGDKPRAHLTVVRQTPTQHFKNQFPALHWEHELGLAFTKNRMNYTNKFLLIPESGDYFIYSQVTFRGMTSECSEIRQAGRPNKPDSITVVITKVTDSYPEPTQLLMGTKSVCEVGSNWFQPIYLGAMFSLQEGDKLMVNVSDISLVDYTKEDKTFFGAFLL
# procedureSummary: SPR Run 6, purified Ab captured on Protein A, TL1A 5 ug/mL, timepoint 44
assayMetric: TL1A Binding Level (Early) (RU)

>>> numericreadout("320-452 (antibody, human IgG1, name in Kabat numbering, V domains shown, human IgG1, lambda) VH: QVQLVQSGAEVKKPGASVKVSCKASGYTFTSYWINWVRQAPGQGLEWMGWLNPNSGNTGYAQKFQGRVTMTADRSTSTAYMELSSLRSEDTAVYYCAREVPETAAFEYWGQGTLVTVSS VL: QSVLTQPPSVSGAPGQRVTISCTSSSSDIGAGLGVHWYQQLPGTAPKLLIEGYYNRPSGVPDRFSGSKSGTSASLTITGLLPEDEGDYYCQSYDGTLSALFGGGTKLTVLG")
84
>>> numericreadout("320-437 (antibody, human IgG1, name in Kabat numbering, V domains shown, human IgG1, lambda) VH: QVQLVQSGAEVKKPGASVKVSCKASGYTFTYYDINWVRQAPGQGLEWMGWLNPNSGNTGYAQKFQGRVTMTADRSTSTAYMELSSLRSEDTAVYYCAREVPETAAFEYWGQGTLVTVSS VL: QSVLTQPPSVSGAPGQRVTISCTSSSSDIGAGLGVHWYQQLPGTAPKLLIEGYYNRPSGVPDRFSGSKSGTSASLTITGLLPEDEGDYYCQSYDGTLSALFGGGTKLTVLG")
119
>>> numericreadout("320-473 (antibody, human IgG1, name in Kabat numbering, V domains shown, human IgG1, lambda) VH: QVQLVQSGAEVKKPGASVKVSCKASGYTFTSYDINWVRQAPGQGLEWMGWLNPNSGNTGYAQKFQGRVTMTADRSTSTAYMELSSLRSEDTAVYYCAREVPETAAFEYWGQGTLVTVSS VL: QSVLTQPPSVSGAPGQRVTISCTSSSSDIGAGLGVHWYQQLPGTAPKLLIEGYYNRPSGVPDRFSGSKSGTSASLTITGLLPEDEGDYYCQSDDGTLSALFGGGTKLTVLG")
69

Just for reference, patent US20170081400A1 is where these values come from.
